Source listed as ChEMBL document CHEMBL4602721.

Molecular target: UniProt P08183
Sequence (P08183 whole entry): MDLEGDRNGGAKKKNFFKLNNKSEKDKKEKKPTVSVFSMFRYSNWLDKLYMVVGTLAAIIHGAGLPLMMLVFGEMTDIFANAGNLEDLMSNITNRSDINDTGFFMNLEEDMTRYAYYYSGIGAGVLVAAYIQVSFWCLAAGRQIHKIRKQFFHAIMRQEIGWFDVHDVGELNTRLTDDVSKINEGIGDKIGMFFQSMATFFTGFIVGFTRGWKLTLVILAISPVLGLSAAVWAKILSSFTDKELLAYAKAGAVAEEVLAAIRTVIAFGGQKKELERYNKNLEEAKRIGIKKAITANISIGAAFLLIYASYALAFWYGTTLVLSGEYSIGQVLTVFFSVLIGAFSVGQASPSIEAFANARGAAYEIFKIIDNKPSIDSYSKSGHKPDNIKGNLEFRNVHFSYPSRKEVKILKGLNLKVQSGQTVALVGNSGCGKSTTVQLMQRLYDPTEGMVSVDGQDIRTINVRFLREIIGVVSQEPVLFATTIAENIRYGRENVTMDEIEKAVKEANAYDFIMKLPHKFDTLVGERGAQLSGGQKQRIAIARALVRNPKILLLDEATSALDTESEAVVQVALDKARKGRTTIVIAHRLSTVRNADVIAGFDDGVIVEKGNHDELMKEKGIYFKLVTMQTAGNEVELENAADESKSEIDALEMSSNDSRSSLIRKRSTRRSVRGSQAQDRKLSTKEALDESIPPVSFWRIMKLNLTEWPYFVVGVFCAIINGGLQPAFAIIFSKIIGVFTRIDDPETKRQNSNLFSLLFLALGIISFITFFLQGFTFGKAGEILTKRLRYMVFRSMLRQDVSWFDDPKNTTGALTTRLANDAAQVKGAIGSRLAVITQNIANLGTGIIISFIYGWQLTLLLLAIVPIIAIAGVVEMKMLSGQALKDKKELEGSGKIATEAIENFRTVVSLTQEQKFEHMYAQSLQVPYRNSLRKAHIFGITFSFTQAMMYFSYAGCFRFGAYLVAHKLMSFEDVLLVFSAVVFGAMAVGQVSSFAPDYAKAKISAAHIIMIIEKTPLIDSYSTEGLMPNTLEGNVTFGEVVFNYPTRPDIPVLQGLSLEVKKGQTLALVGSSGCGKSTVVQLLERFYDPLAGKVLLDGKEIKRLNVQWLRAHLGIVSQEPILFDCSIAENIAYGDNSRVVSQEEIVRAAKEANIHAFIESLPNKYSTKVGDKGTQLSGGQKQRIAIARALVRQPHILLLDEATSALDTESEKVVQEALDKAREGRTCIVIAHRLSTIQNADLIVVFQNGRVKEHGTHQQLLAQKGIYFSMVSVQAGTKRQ
Assay: Reversal of Pgp-mediated DOX resistance in human SW620/AD300 cells assessed as potentiation of DOX-induced cytotoxicity by measuring inhibition of cell proliferation at 1 uM incubated for 48 hrs by SRB assay (reference value: 5.3 +/- 3 %)
Type: cell-based
As shown below, each of these molecules has a reported inhibition at 1 µM value.

{"MOLECULE": "COc1cc2c(cc1OC)CN(C(=O)/C=C(/c1c(-c3ccccc3)n(C)c3ncccc13)C(F)(F)F)CC2", "inhibition at 1 µM": "32.5%"}
{"MOLECULE": "COc1cc2c(cc1OC)CN(C(=O)/C=C/c1c3n(c4ccccc14)C(c1ccccc1)Oc1ccccc1-3)CC2 (stereo not drawn)", "inhibition at 1 µM": "41.4%"}

The molecule COc1cc2c(cc1OC)CN(C(=O)/C=C/c1c(-c3ccccc3)n(C)c3ncccc13)CC2 on UniProt P08183: inhibition at 1 µM was 40%
